The origin of these recorded values is ChEMBL document CHEMBL4304757.

// IC50 lookup, one value per entry
# Target or system: Alpha glucosidase (Homo sapiens, UniProt O43451+P10253+P14410+Q2M2H8)
# Test method notes: Inhibition of alpha-glucosidase (unknown origin) using p-nitrophenyl-alpha-d-glucopyranoside as substrate preincubated for 5 mins followed by substrate addition measured after 30 mins
# Assay type: protein assay

# count of solved cases: 3
| Entry smiles | Target or system | IC50 |
| --- | --- | --- |
| Cc1cs/c(=N\C(=O)c2cc3ccccc3oc2=O)n1-c1cc(Cl)c(Cl)cc1Cl | Alpha glucosidase (Homo sapiens, UniProt O43451+P10253+P14410+Q2M2H8) | 100 to 150 nM |
| COc1ccc(N2C(=O)/C(=C/c3ccc(F)cc3)S/C2=N\NC(=O)c2cc3ccccc3oc2=O)cc1 | Alpha glucosidase (Homo sapiens, UniProt O43451+P10253+P14410+Q2M2H8) | 90 to 1600 nM |
| Cc1cc(C)cc(N2C(=O)/C(=C/c3ccc(F)cc3)S/C2=N\NC(=O)c2cc3ccccc3oc2=O)c1 | Alpha glucosidase (Homo sapiens, UniProt O43451+P10253+P14410+Q2M2H8) | 90 to 1600 nM |

Returns the measured IC50 for the input molecule. Input: `Cc1cccc(C(=O)/N=c2\scc(C)n2-c2cc(Cl)c(Cl)cc2Cl)c1`
100 to 150 nM

Returns the measured IC50 for the input molecule. Input: `Cc1ccc(N2C(=O)/C(=C/c3ccc(F)cc3)S/C2=N\NC(=O)c2cc3ccccc3oc2=O)cc1`
90 to 1600 nM

Returns the measured IC50 for the input molecule. Input: `Cc1cccc(N2C(=O)/C(=C/c3ccc(F)cc3)S/C2=N\NC(=O)c2cc3ccccc3oc2=O)c1`
90 to 1600 nM

Returns the measured IC50 for the input molecule. Input: `O=C(N/N=C1\S/C(=C\c2ccc(F)cc2)C(=O)N1c1ccc(Cl)cc1)c1cc2ccccc2oc1=O`
90 to 1600 nM

Returns the measured IC50 for the input molecule. Input: `O=C(N/N=C1\S/C(=C\c2ccc(F)cc2)C(=O)N1c1cccc(Cl)c1)c1cc2ccccc2oc1=O`
> 100000 nM

Returns the measured IC50 for the input molecule. Input: `O=C(N/N=C1\S/C(=C\c2ccc(F)cc2)C(=O)N1c1ccccc1Cl)c1cc2ccccc2oc1=O`
90 to 1600 nM
